# System: HCC-2998 colon
# Method Notes: NCI tumour cell line growth inhibition, 48 h
Recorded TGI values for a group of molecules are listed next.

{"Molecule": "O=C(O)CSCc1cc2c(O)c(c1)Cc1cc(CSCC(=O)O)cc(c1O)Cc1cc(CSCC(=O)O)cc(c1O)Cc1cc(CSCC(=O)O)cc(c1O)C2", "TGI": "> 100 µM"}
{"Molecule": "CCOP(=O)(OCC)C(C)(C)N(C)/C(F)=N/C(F)(F)F", "TGI": "> 100 µM"}
{"Molecule": "COc1ccc(C(=O)Nc2ncc(Cc3cccc(Cl)c3)s2)cc1OC", "TGI": "> 44.1 µM"}
{"Molecule": "Oc1cc(O)c2ccc(-c3ccc(O)c(O)c3)[o+]c2c1", "TGI": "> 100 µM"}
{"Molecule": "NC(=O)C(=O)c1ncn(Cc2ccccc2)c1N", "TGI": "> 100 µM"}
{"Molecule": "CC(C)(C)n1c(=O)n2n(c1=O)Cc1cccc3cccc(c13)C2", "TGI": "45.6 µM"}
{"Molecule": "Cc1cccc(-c2[nH]ncc2-c2ccc3ncccc3n2)n1", "TGI": "> 25 µM"}
{"Molecule": "CC1(C)CC(O)C2=C(O1)C(=O)c1ncccc1C2=O (centres undefined)", "TGI": "14.6 µM"}
{"Molecule": "COc1ccc(/C=N/NC(=O)c2sc(=S)n(-c3ccccc3)c2N)cc1", "TGI": "> 100 µM"}
{"Molecule": "O=[N+]([O-])c1ccc(-c2cc(O)c3nc4ccccc4n3c2)cc1", "TGI": "> 100 µM"}

Item: O=C(Cn1cc(-c2ccccc2)nn1)NC1CCCCC1 | TGI: > 100 µM

Item: O=C1CC[C@H](N2C(=O)c3cccc4c(Cc5ccc(CN6CCOCC6)cc5)ccc2c34)C(=O)N1 | TGI: > 100 µM

Item: NC1=CC(=O)c2cccnc2C1=O | TGI: 19.8 µM

Item: Cc1sc2[nH]c(=O)oc(=O)c2c1C | TGI: > 100 µM

Item: COc1ccc(CC2C3=C(CCN2C(=O)C2CCC2)CC2(CC3)OCCO2)cc1O (centres undefined) | TGI: > 100 µM

Item: O=C1CC(c2c(-c3ccccc3)[nH]c3ccccc23)C(=O)N1 (centres undefined) | TGI: > 100 µM

Item: Clc1c(Cl)c(Cl)c2c(nnn2C2CCCO2)c1Cl (centres undefined) | TGI: > 100 µM

Item: Cc1nc2c(c(=O)[nH]1)S/C(=C(/C#N)c1nc3ccccc3[nH]1)N2c1ccccc1 | TGI: > 100 µM

Item: O=C1c2[nH]cc(CNC3CN4CCC3CC4)c2C(=O)c2c1c(O)c1ccccc1c2O (centres undefined) | TGI: 0.721 µM

----------
Recorded GI50 values for a group of molecules are listed next.
# Tested on: DU-145 prostate
# Method Notes: NCI tumour cell line growth inhibition, 48 h

For orientation, consider the following solved cases.
{"Query Smiles": "CCC(CC)c1nc(Nc2ccc(C(=O)OC)cc2)c2ccccc2n1", "GI50": "> 22.7 µM"}
{"Query Smiles": "C[n+]1c(/C=C/c2c[nH]c3ccccc23)ccc2ccccc21", "GI50": "10.1 µM"}
{"Query Smiles": "N=C(N)c1ccc(-c2ccc(-c3ccc(Cl)cc3Cl)o2)nc1", "GI50": "1.78 µM"}
{"Query Smiles": "Cn1cc(C2=C(c3ccccc3[N+](=O)[O-])C(=O)NC2=O)c2ccccc21", "GI50": "6.13 µM"}
{"Query Smiles": "Nc1ccccc1NC(=O)c1ccc(CNc2nccc(-c3cccnc3)n2)cc1", "GI50": "1.45 µM"}

Okay, next one:
Item: O=C(COc1ccc(/C=C2\COc3ccccc3C2=O)cc1)Nc1nccs1 | GI50: 4.8 µM

Data origin: PubChem BioAssay (NCI)
